System: LOX IMVI melanoma
Assay: NCI-60 one-dose screen, 48 h
Conditions: 10 µM unless noted
Procedure: Growth inhibition of the LOX IMVI human tumor cell line is measured as a screen for anti-cancer activity. Cells are grown in 96 well plates and exposed to the test compound for 48 hours. Compounds are tested at a single concentration, which is 10^-5 M for most compounds. The reported endpoint is percent growth (GI% or GIPRCNT), where numbers from 0 - 100% represent growth inhibition, and numbers from -100% - 0 represent cell death. For example, a value of 40 represents 60% growth inhibition. […]
About 83,000 compounds went through this panel and 20% of them were active in at least one assay; those are over-represented in the sample as a whole. The source made the active and inactive calls. The calls were made as follows: active = growth percent below 10; inactive = the rest.
Labels: active, inactive

CCOC(=O)C1=C(NC)OCC1=O
inactive
COc1cc(-c2cc(-c3cccs3)c(C#N)c(N3CCOCC3)n2)cc(OC)c1OC
inactive
CCc1nc2c(=O)[nH]cnc2o1
inactive
CCn1c(=S)sc2c(Nc3ccc(F)cc3)nc(-c3cccnc3)nc21
inactive
C=CC(=O)NCc1ccc(Nc2nccc(-c3ccc(N4CCCC4)c(C#N)c3)n2)cc1
inactive
COc1ccc2c(c1)[n+]([O-])c(C(=O)/C=C/C=C(\Cl)c1cc(OC)c(OC)c(OC)c1)c(C)[n+]2[O-]
inactive
CN(C)CCNC(=O)c1cccc(-c2cnc3ccc(-c4ccc5c(c4)OCO5)nn23)c1
inactive
CC/C(=C(/c1ccc(Cl)cc1)c1ccc(OCCN2CCCC2)cc1)c1ccc(OC)cc1
inactive
COC(=O)c1cc(-c2ccccc2)[nH]c1N/N=C/c1c(Cl)cccc1Cl
inactive
COc1cc(-c2csc(NC(=O)c3cc(-n4cnc(C)c4)cc(C(F)(F)F)c3)n2)cc(OC)c1OC
inactive
O=C(CSc1nc2ccc([N+](=O)[O-])cc2[nH]1)Nc1cccc(C(F)(F)F)c1
inactive
CCOC(=O)C#Cc1c(C(=O)OCC)nnn1[C@@H]1O[C@H](CO)[C@H]2OC3(CCCCC3)O[C@H]21
inactive
Clc1ccc(CNc2c3ccccc3nc3ccccc23)cc1
inactive
C=CCc1c(O)c(C(=O)/C=C/c2ccc(Cl)cc2)c(OC)c2ccoc12
inactive
O=C(/C=C(/C=C/c1cccc2[nH]ccc12)OB(F)F)/C=C/c1cccc2[nH]ccc12
active
Cc1nnc(-n2c(O)cc(=O)n(-c3ccccc3)c2=S)nc1/C=C/c1ccc(N(C)C)cc1
inactive
O=C1CC(N2C(=O)/C(=C/C(Cl)=C\c3ccc([N+](=O)[O-])cc3)SC2=S)C(=O)N1c1ccc(Cl)cc1 (stereo not given)
active
CC(C)(C)[Si](C)(C)O[C@H]1C(=O)C=CN2CC=C[C@@H]12
inactive
O=c1oc2ccc([N+](=O)[O-])cc2cc1Br
inactive
CN1CCN(C(=O)OCc2ccc3c(Cl)cc(Cl)c(O)c3n2)CC1
inactive

###

System: COLO 205 colon
Assay: NCI-60 one-dose screen, 48 h (100 = growth as untreated, 0 = no growth, -100 = all killed)
Conditions: 10 µM unless noted
Protocol: Cells are grown in 96 well plates and exposed to the test compound for 48 hours. Compounds are tested at a single concentration, which is 10^-5 M for most compounds. The reported endpoint is percent growth (GI% or GIPRCNT), where numbers from 0 - 100% represent growth inhibition, and numbers from -100% - 0 represent cell death. For example, a value of 40 represents 60% growth inhibition. A value of 0 means no net growth occurred over the course of the experiment. […]
The panel holds about 83,000 compounds, 20% with a hit somewhere; the sample as a whole holds those more often. Activity calls are given as the source filed them. How the source made its calls: active means growth percent below 10; inactive means the rest.
readout.type: growth

COc1ccc(-c2nc3c(c(-c4ccccc4)nn3-c3ccccc3)c(-c3ccc(N4CCOCC4)cc3)c2C#N)cc1
124% (inactive)
COc1cnc2c(c1)C(=O)c1c-2n(CCCNCCO)c(=O)c2ccncc12
-15.7% (active)
Cc1nc2sc(C(=O)Nc3cccc(Cl)c3C)c(N)c2cc1C(=O)c1ccccc1
-36% (active)
c1cc2[nH]ncc2cc1-c1nc2ccc3[nH]ncc3c2c2c1CCCC2
3.57% (active)
Cn1ccc2c3c(ccc21)CC3=O
119% (inactive)
CCN1CC(=O)N(/N=C2\C(=O)Nc3ccccc32)C1=S
101% (inactive)
CC(C)c1ccc(NC(=O)Nc2ccc(NC(=O)CCCC(=O)NOCc3ccccc3)cc2)cc1
93.4% (inactive)
Cc1nn(-c2ccccc2)c(Oc2ccccn2)c1-c1nc2ccccc2s1
110% (inactive)
CC(=O)[C@@H]1CCC=C2CC[C@]3(C)[C@@H](CC[C@@H]4[C@@]5(C)CCCNC(C)(C)[C@@H]5CC[C@]43C)[C@H]21
-81% (active)
Nc1c(C(=O)Nc2ccncc2)sc2nc3c(cc12)CCCCCC3
104% (inactive)
C=C(C)[C@@H]1CC[C@]2(C(=O)NCC#CCN3CCN(C)CC3)CC[C@]3(C)[C@H](CC[C@@H]4[C@@](C)(CCC#N)[C@H](C(=C)C)CC[C@]43C)[C@@H]12
57.8% (inactive)
Cc1ccc(-c2nn(-c3ccccc3)cc2C=C2C(=O)ON=C2C(C)C)cc1
114% (inactive)
CCCCCCNC(=O)Oc1ccc(/C(=C(/C)Cc2ccc(OC)cc2)c2ccc(OCCCN(C)C)cc2)cc1
-84% (active)
CC(C)CCNC(=O)Cn1cccc(NC(=O)OCc2ccccc2)c1=O
108% (inactive)
O=C(O)CNC1=C(Cl)C(=O)c2ccccc2C1=O
113% (inactive)
Clc1ccc(Nc2nnc(COc3ccccc3)c3ccccc23)cc1
-5.75% (active)
COC1=CC(c2ccc[nH]2)=N/C1=C\c1[nH]c(C)c(C(=O)OCc2ccccc2)c1C
-82% (active)
O=C(NCc1ccccc1)Nc1ccccc1CNc1nc(Nc2ccc(OCCN3CCCC3)cc2)ncc1Cl
112% (inactive)
COc1ccc(N2CCC(=O)NC2=S)cc1
106% (inactive)
O=C(c1ccc(-c2nc(CSc3nc4ccccc4s3)no2)cc1)N1CCSCC1
87.8% (inactive)

###

test system: HCC-2998 colon; test: NCI-60 one-dose screen, 48 h; details: 10 µM unless noted
This is part of a sample that, as a whole, favours compounds with a hit. Of some 83,000 tested, about 20% had one in any assay. Calls of active or inactive are those of the source. Rule for the calls: active = growth percent below 10; inactive = the rest.
Possible outcomes: active, inactive

C/C(=N\NC(=O)c1ccccc1O)c1cccc(/C(C)=N/NC(=O)c2ccccc2O)n1
inactive
Cc1cc2c([nH]1)CSc1cc(S(=O)(=O)c3ccccc3)c(=O)[nH]c1-2
inactive
CO/N=C(/C)c1ccc(NC(=O)CSc2nnc(-c3ccncc3)n2-c2ccccc2)cc1
inactive
CN(C)CCNC(=O)c1cccc(-c2cnc3ccc(-c4ccc5c(c4)OCO5)nn23)c1
inactive
C/C(Nc1ccc(Cl)c(Cl)c1)=C1\CCOC1=O
inactive
Cc1ccc(-c2cc(-c3ccc(Cl)cc3)nc(NC(=O)c3cccnc3)n2)cc1
inactive
C[C@@H]1CCC[C@H]1CC(N)C(=O)O (some centres undefined)
inactive
CN1C(=O)/C(=C/c2cn(-c3ccccc3)nc2-c2ccccc2)SC1=S
inactive
CCCNC(=O)Oc1ccc(/C(=C(/C)Cc2ccc(OC)cc2)c2ccc(OCCCN(C)C)cc2)cc1
inactive
O=C1/C(=C/c2ccc(F)cc2)COc2ccc(O)c(O)c21
inactive
CC1=Nc2cnc(Nc3ccc(OCCN4CCCCC4)cc3)nc2Nc2ccccc21
inactive
COC(=O)c1c2c(c(C)[n+]([O-])c1C)C(=O)C(NCc1ccc(Cl)cc1)=CC2=O
inactive
CN(C)CCCn1c2c(c3ncccc3c1=O)C(=O)c1ccccc1-2
inactive
CN1CCN(C(=O)c2ccc(NC(=O)Nc3ccc(-c4nc(N5CCOCC5)c5cccn5n4)cc3)cc2)CC1
active
COc1ccc(-c2nc(SCC(C)C)nc(N/N=C\c3ccc(F)cc3)c2C#N)cc1
inactive
COC(=O)[C@H]1CCCN1C[C@@H](O)CN1C(=O)/C(=C\c2cc(OC)c(OC)c(OC)c2)c2ccccc21
inactive
Cc1nc2sc(C(=O)Nc3cccc(Cl)c3C)c(N)c2cc1C(=O)c1ccccc1
active
CCCCN[C@H]1CC[C@@]2(C)[C@@H](CC[C@@]3(C)[C@H]2[C@H](O)C[C@H]2/C(=C(\CCC=C(C)C)C(=O)OC)[C@@H](OC(C)=O)C[C@@]23C)[C@@H]1C
inactive
COc1ccc(C/C(C)=C(/c2ccc(OCCN3CCCCC3)cc2)c2ccc(OC(=O)NCc3ccccc3)cc2)cc1
active

###

system: NCI-H522 lung; experiment: NCI-60 one-dose screen, 48 h (100 = growth as untreated, 0 = no growth, -100 = all killed); conditions: 10 µM unless noted
This is part of a sample that, as a whole, favours compounds with a hit. Of some 83,000 tested, about 20% had one in any assay.
Rule: Satisfied for growth not less than 80%, Not satisfied for anything less.

CN(C)Cc1ccc(NC(=O)c2cncc(C#Cc3cnc(N)c4ncccc34)c2)cc1F
Satisfied
CCN(C(=O)N1CCN(c2cc3c(cc2F)c(=O)c(C(=O)O)cn3C2CC2)CC1)c1nc(-c2ccc(Cl)cc2)cs1
Not satisfied
CCCC(=O)NC(c1ccc2c(c1)OCO2)c1ccc2cccnc2c1O (stereo not given)
Not satisfied
O=C1/C(=C/c2cccs2)SC(=S)N1CCCN1CCOCC1
Not satisfied
O=C(NCCCN1CCOCC1)c1cccc(N2C(=O)/C(=C/c3ccc(F)cc3)SC2=S)c1
Satisfied
CCn1cc(C(=O)N/N=C/c2cccs2)c(=O)c2cc(F)c(N3CCNC(C)C3)c(F)c21 (stereo not given)
Not satisfied
O=C(OCc1ccc2c(Cl)cc(Cl)c(O)c2n1)n1cncn1
Not satisfied
Cn1cc(-c2nonc2-c2c[nH]c3ccc(Br)cc23)c2cc(Br)ccc21
Not satisfied
CCCCCC(=O)OCC(=O)O[C@@H]1C[C@]2(C(C)C)O[C@@]1(C)[C@@H]1CC[C@@H](C)[C@H]1[C@@H]2OC(=O)/C=C/c1ccccc1
Not satisfied
CCNC(=O)c1[nH]cc(-c2ccccc2)c1-c1cc(OC)c2c(c1OC)OCO2
Satisfied
O=C(Nc1nc2ccc(F)cc2s1)c1cccnc1Nc1ccc(Cl)cc1
Not satisfied
O=C1/C(=C\c2cn(-c3ccccc3)nc2-c2ccc(-c3cccs3)cc2)CCc2ccccc21
Not satisfied
O=C(Nn1c2c(sc1=NCc1ccccc1)C(=O)c1ccccc1C2=O)c1cc2ccc1CCc1ccc(cc1)CC2
Not satisfied
CN1C(=O)N(C)C2Nn3c(s/c(=C\c4ccc(C(F)(F)F)cc4)c3=O)=NC21 (stereo not given)
Satisfied
C#Cc1cccc(Nc2ncnc3ccc(-c4cnc(N)nc4)cc23)c1
Not satisfied
C=CCc1c(O)c(C(=O)/C=C/c2ccc(Cl)cc2)c(OC)c2ccoc12
Not satisfied
CCOc1nc(-c2ccccc2)cc2c(O)c(C(=O)NN)[nH]c(=O)c12
Satisfied
O=c1oc2ccc([N+](=O)[O-])cc2cc1Br
Satisfied

Measured values drawn from PubChem BioAssay (NCI) for this set.
